Target: T1, human NMI (N-myc Interacting protein) (human, UniProt Q13287 1-307, limits assumed)
T1 construct: Immunogen and ELISA coating antigen; also called hNMI; antigen 1
T1 sequence (looked up): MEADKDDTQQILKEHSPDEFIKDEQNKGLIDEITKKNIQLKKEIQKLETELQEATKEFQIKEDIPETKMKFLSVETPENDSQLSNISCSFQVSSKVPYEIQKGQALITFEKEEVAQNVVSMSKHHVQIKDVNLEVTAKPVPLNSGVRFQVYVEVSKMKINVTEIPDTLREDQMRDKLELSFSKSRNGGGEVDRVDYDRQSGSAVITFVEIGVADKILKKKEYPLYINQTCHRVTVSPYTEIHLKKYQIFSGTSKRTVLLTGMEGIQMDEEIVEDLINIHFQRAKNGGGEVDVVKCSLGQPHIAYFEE
Assay: I-ELISA, hNMI coated 1 ug/mL; antibody 2500 ng/mL
Value kind: OD450 (OD450)
Give bare numbers, in OD450.

Item under review: B-8 (antibody, V domains shown, Rabbit monoclonal antibody; also called B8-1; B-8-biotin (biotin-labelled form)) VH: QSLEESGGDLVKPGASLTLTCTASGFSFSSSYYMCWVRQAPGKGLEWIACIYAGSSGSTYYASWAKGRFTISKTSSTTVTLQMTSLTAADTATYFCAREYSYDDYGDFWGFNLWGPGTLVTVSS VL: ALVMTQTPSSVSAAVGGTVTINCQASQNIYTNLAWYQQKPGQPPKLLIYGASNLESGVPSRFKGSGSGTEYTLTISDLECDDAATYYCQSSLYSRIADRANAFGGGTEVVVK . Reported OD450?
1.85
